- EXPERIMENTAL SYSTEM: human recombinant Aminopeptidase N (Homo sapiens)
- Sequence (P15144 whole entry): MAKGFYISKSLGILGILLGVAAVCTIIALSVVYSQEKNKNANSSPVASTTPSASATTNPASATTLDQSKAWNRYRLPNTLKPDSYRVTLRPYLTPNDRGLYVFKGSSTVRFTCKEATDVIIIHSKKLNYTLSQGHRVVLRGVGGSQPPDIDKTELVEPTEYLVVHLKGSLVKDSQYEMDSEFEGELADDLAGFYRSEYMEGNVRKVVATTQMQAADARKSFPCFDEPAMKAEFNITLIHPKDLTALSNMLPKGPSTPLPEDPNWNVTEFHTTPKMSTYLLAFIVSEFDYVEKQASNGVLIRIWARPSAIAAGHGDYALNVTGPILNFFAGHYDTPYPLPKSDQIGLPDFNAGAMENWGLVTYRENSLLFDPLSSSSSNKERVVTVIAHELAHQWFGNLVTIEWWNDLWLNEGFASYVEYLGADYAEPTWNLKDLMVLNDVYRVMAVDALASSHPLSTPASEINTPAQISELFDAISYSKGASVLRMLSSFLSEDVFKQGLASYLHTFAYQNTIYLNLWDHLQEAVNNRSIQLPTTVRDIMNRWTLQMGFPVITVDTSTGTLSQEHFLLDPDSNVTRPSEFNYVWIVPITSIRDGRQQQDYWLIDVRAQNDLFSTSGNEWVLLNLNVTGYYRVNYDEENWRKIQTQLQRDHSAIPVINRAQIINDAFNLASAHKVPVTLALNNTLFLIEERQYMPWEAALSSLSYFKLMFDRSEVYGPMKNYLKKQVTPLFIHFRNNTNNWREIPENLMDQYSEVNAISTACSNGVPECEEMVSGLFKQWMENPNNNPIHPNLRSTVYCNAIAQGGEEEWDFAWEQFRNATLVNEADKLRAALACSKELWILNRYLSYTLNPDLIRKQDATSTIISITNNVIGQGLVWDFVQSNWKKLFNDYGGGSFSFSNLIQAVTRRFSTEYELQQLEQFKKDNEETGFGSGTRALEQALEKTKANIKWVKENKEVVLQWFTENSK
- ASSAY INFO: Measurement of APN activity (fluorogenic substrate (Ala)2-R110)
- Assay type: biochemical
- RUN PARAMETERS: human recombinant APN approx. 5 nM, substrate 0.5 μM, pH 7.5
Field 'label' (enum: 1.0 / 0.0). Set to 1.0 when IC50 is strictly under 3 µM; else 0.0.

>  <MOLECULE>
NC(CC(=O)NCCNC(=O)C(O)C(N)Cc1ccccc1)Cc1ccccc1 (stereo not shown) [drawing 14]

>  <ASSIGNED CLASS>
1.0

$$$$

Prompt line: Strictly below 3 µM: is that where IC50 of NC(CC(=O)N1CCN(C(=O)C(O)C(N)Cc2ccccc2)CC1)Cc1ccccc1 (stereo not shown) [drawing 17] sits?
Response line: 0.0

Prompt line: Strictly below 3 µM: is that where IC50 of CC(C(=O)NCC(C)(C)CNC(=O)C(O)C(N)Cc1ccccc1)C(N)Cc1cc(F)ccc1F (stereo not shown) [drawing 60] sits?
Response line: 1.0

Prompt line: Strictly below 3 µM: is that where IC50 of NC(CC(=O)NCCCCNC(=O)C(O)C(N)Cc1ccccc1)C(=O)N1CCSC1 (stereo not shown) [drawing 42] sits?
Response line: 0.0

Prompt line: Strictly below 3 µM: is that where IC50 of CCCCCCCC(=O)OC(C(=O)N(C)CCCNC(=O)CC(N)Cc1cc(F)ccc1F)C(N)Cc1ccccc1 (stereo not shown) [drawing 44] sits?
Response line: 0.0

Prompt line: Strictly below 3 µM: is that where IC50 of CC(C)(CNC(=O)CC(N)Cc1cc(F)ccc1F)CNC(=O)C(O)C(N)Cc1ccc(O)cc1 (stereo not shown) [drawing 73] sits?
Response line: 0.0

Prompt line: Strictly below 3 µM: is that where IC50 of NC(CNC(=O)c1cccc(NC(=O)C(O)C(N)Cc2ccc(-c3ccsc3)cc2)c1)Cc1cc(F)ccc1F (stereo not shown) [drawing 78] sits?
Response line: 1.0

Prompt line: Strictly below 3 µM: is that where IC50 of CCCC(=O)NC(CC(=O)NCC(C)(C)CNC(=O)C(O)C(Cc1ccccc1)NC(=O)CCC)Cc1cc(F)ccc1F (stereo not shown) [drawing 38] sits?
Response line: 0.0

Prompt line: Strictly below 3 µM: is that where IC50 of NC(CC(=O)NCCCCNC(=O)C(O)C(N)Cc1ccccc1)Cc1ccccc1 (stereo not shown) [drawing 23] sits?
Response line: 1.0
